Source listed as patent US20200207782A1.

# Experiment Notes: Solution stability test (residual ratio and generation of active form in buffers of pH 2.0 to 9.0)
# Assay type: physicochemical
# Parameters: tested at 25 µM
# Conditions: pH 7.4 buffer, 24 hours, 25° C.
Structures can show the parent of a compound that is named as a salt.
Recorded Rate of generation of active form after 24 hours in buffer with pH of 7.4 for the following compounds
Report the value in % with no unit label.

Answered cases to consult:
CC(=O)c1cc2c(O)c3c(O)cccc3c(OC(=O)NCCCN)c2o1 [Reference Example 9, hydrochloride]
71
CNCCN(C)C(=O)Oc1cc(O)c2c(=O)cc(-c3ccccc3Cl)oc2c1[C@H]1CCN(C)C[C@H]1O [Example 10, ditrifluoroacetate]
96
Cc1cc(OC(=O)NCCNCC(=O)O)c2ccccc2c1OC(=O)NCCNCC(=O)O [Example 2, dihydrochloride]
7

Query: Can you share its Rate of generation of active form after 24 hours in buffer with pH of 7.4? I mean this compound: C[C@H]1COc2c1c(OC(=O)NCCNCC(=O)O)c(OC(=O)NCCNCC(=O)O)c1c3c(ccc21)C(C)(C)CCC3 [Example 12, dihydrochloride]
Reply: 11
